target: Parkinson's disease protein 7 (PARK7/DJ1) (human); assay: primary screen, percent inhibition; read as competition with a fluorescent probe by fluorescence polarization; higher = more effect of the substance; conditions: 100 µM
Sequence (Q99497 whole entry, looked up): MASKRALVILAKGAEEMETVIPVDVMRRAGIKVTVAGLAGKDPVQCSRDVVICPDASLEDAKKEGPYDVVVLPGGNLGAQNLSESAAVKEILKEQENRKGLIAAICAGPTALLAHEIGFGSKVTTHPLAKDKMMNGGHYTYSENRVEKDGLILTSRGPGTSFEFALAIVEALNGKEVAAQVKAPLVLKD
Screen size: about 7,900 compounds; about 400 (5.1%) showed an effect of 50% or more. For the sample, strong results were picked, then their nearest neighbours and some compounds at random.
Form field: Inhibition % (one value per entry).
Write the number in % without appending the unit.

Input: For O=C(CCl)NC(=O)c1ccc(Cl)cc1 , what is its reported Inhibition %?
Output: 19.6

Input: For O=C(CCl)c1ccc(Cl)cc1 , what is its reported Inhibition %?
Output: 75.6

Input: For O=C(CCl)c1cc(F)ccc1O , what is its reported Inhibition %?
Output: 38.8

Input: For Cn1c(=O)oc2cc(C(=O)CCl)ccc21 , what is its reported Inhibition %?
Output: 0.517

Input: For O=C(CCl)c1ccc(F)cc1 , what is its reported Inhibition %?
Output: 32.3
